- RUN_DESCRIPTION: Haemolytic activity in human erythrocytes assessed as induction of hemolysis at 1.25 mM after 30 mins relative to H202
- Type: cell-based, Erythrocyte
- TEST_SETTINGS: erythrocytes, read-out: Activity
Answer each item with its documented hemolysis at 0.5 h, 1250 µM.
Report the value in % with no unit label.

(Q) Which hemolysis at 0.5 h, 1250 µM value belongs to `N=C(N)c1ccc(-c2ccc(-c3ccc(Cl)cc3)o2)o1` ?
(A) 14

(Q) Quick one: hemolysis at 0.5 h, 1250 µM for `COc1ccc(-c2ccc(-c3ccc(C(=N)N)s3)s2)cc1` ?
(A) 17.3

(Q) // hemolysis at 0.5 h, 1250 µM lookup, key: `COc1cccc(-c2ccc(-c3ccc(C(=N)N)s3)s2)c1`
(A) 3.1

---

- Tested on: UACC-257
- RUN_DESCRIPTION: Antiproliferative activity against human UACC257 cells assessed as growth inhibition after 48 hrs by sulforhodamine B assay
- Type: functional
- TEST_SETTINGS: UACC-257, 48 h
MEASURED_PROPERTY: GI50 (µM)
Response body: numeric value in µM, unit text excluded.

(Q) What value of GI50 on UACC-257 does `N=C(N)c1ccc(-c2ccc(-c3ccccc3)o2)o1` have?
(A) 2.52

(Q) Reported GI50 for UACC-257, given `N=C(N)c1ccc(-c2ccc(-c3ccc(Cl)cc3)o2)o1` ?
(A) 1.99

(Q) What value of GI50 on UACC-257 does `N=C(N)c1ccc(-c2ccc(-c3cc(Cl)cc(Cl)c3)o2)o1` have?
(A) 2.05

(Q) I'm curious: which GI50 was measured for `COc1cc(OC)cc(-c2ccc(-c3ccc(C(=N)N)o3)o2)c1` tested on UACC-257?
(A) 2.41

(Q) Lookup: GI50 / UACC-257 / `N=C(N)c1ccc(-c2ccc(-c3ccc4ccccc4c3)s2)s1`
(A) 16.1

(Q) Tell me reported GI50 for `N=C(N)c1ccc(-c2ccc(-c3ccc(F)cc3)o2)o1` , tested with UACC-257.
(A) 1.98

(Q) Reported GI50 for UACC-257, given `N=C(N)c1ccc(-c2ccc(-c3ccc(F)cc3)s2)s1` ?
(A) 2.19

(Q) Give UACC-257 GI50 for `COc1ccc(-c2ccc(-c3ccc(C(=N)N)o3)o2)cc1`
(A) 11.1

(Q) # returns recorded GI50 (system: UACC-257) for `N=C(N)c1ccc(-c2ccc(-c3cncc4ccccc34)s2)s1`
(A) 2.47

(Q) Could you share what GI50 was measured for `COc1cc(-c2ccc(-c3ccc(C(=N)N)s3)s2)cc(OC)c1OC` , tested on UACC-257?
(A) 2.22

(Q) Fill in the recorded GI50 for this compound, with UACC-257 as test system: `N=C(N)c1ccc(-c2ccc(-c3cc(Cl)cc(Cl)c3)s2)s1`
(A) 2.05

(Q) Give UACC-257 GI50 for `N=C(N)c1ccc(-c2ccc(-c3ccc(Cl)cc3)s2)s1`
(A) 2.78

(Q) Quick check: GI50 on UACC-257, item `COc1ccc2cc(-c3ccc(-c4ccc(C(=N)N)s4)s3)ccc2c1` ?
(A) 19.6

---

- RUN_DESCRIPTION: Haemolytic activity in human erythrocytes assessed as induction of hemolysis at 10 mM after 30 mins relative to H202
- Format: cell-based, Erythrocyte
- TEST_SETTINGS: read-out: Activity
MEASURED_PROPERTY: hemolysis at 0.5 h, 10000 µM (%)
Give the value in % but do not write % after it.

(Q) Endpoint output: hemolysis at 0.5 h, 10000 µM of `N=C(N)c1ccc(-c2ccc(-c3ccccc3)o2)o1` . Value?
(A) 66.7

(Q) Name the reported hemolysis at 0.5 h, 10000 µM value associated with the compound `COc1cc(-c2ccc(-c3ccc(C(=N)N)s3)s2)cc(OC)c1OC`
(A) 79.7

(Q) Fill blank: measured hemolysis at 0.5 h, 10000 µM of the compound `N=C(N)c1ccc(-c2ccc(-c3cc(Cl)cc(Cl)c3)o2)o1` is ____.
(A) 89.3

(Q) Recorded hemolysis at 0.5 h, 10000 µM for `O=C1O[C@H]([C@@H](O)CO)C(O)=C1O` , please?
(A) 16.3

(Q) Fill in the blank: the reported hemolysis at 0.5 h, 10000 µM of `COc1cccc(-c2ccc(-c3ccc(C(=N)N)s3)s2)c1` is ____.
(A) 79

(Q) For the compound `N=C(N)c1ccc(-c2ccc(-c3ccc(Cl)cc3)o2)o1` , what hemolysis at 0.5 h, 10000 µM is on record?
(A) 97.3
